Each recorded value in this set is attributed to PubChem BioAssay AID1963873.

System: 276233-004-R-J1-PDC KRAS spheroids with HUVEC/MSC, viability
test.details: Anticancer human tumor 276233-004-R-J1-PDC patient-derived colon adenocarcinoma cell line growth inhibition [KRAS2]
test.context: second compound 0.316 µM; first compound 0.1 µM; active compounds read low
So I've got a bunch of compounds here, and I need their viability, T/C values.
Numbers only here, please. The scale is %.

-- ask Give the reported value of viability, T/C for this record: COC(=O)c1ccc2c(C(=Nc3ccc(N(C)C(=O)CN4CCN(C)CC4)cc3)c3ccccc3)c(O)[nH]c2c1 + CC1OCC2(CCN(c3cnc(Sc4ccnc(N)c4Cl)c(N)n3)CC2)C1N
-- reply 63.8

-- ask Give the reported value of viability, T/C for this record: CC1(C)CCC(CN2CCN(c3ccc(C(=O)NS(=O)(=O)c4ccc(NCC5CCOCC5)c([N+](=O)[O-])c4)c(Oc4cnc5[nH]ccc5c4)c3)CC2)=C(c2ccc(Cl)cc2)C1 + COc1cc2nc(C)nc(NC(C)c3cc(N)cc(C(F)(F)F)c3)c2cc1OC1CCOC1
-- reply 84.8

-- ask Give the reported value of viability, T/C for this record: CC1OCC2(CCN(c3cnc(Sc4ccnc(N)c4Cl)c(N)n3)CC2)C1N (stereo not given) + C=CC(=O)N1CCN(c2nc(OCC3CCCN3C)nc3c2CCN(c2cccc4cccc(C)c24)C3)CC1CC#N
-- reply 98.7

-- ask Give the reported value of viability, T/C for this record: Cn1ncnc1[C@H]1c2n[nH]c(=O)c3cc(F)cc(c23)N[C@@H]1c1ccc(F)cc1 + CC1OCC2(CCN(c3cnc(Sc4ccnc(N)c4Cl)c(N)n3)CC2)C1N
-- reply 89.6

-- ask Give the reported value of viability, T/C for this record: COC(=O)c1ccc2c(C(=Nc3ccc(N(C)C(=O)CN4CCN(C)CC4)cc3)c3ccccc3)c(O)[nH]c2c1 + C=CC(=O)N1CCN(c2nc(OCC3CCCN3C)nc3c2CCN(c2cccc4cccc(C)c24)C3)CC1CC#N
-- reply 87.5

###

Test system: 276233-004-R-J1-PDC KRAS spheroids with HUVEC/MSC, viability
test.details: Anticancer human tumor 276233-004-R-J1-PDC cell line growth inhibition [KRAS2];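 also: cells exposed to agents for seven days before viability read; 100% = DMSO vehicle control wells and lower values mean fewer viable cells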
test.context: second compound 1 µM; first compound 0.00316 µM; active compounds read low
readout: viability, T/C (%)
Numbers only here, please. The scale is %.

-- ask Give the reported value of viability, T/C for this record: CC(C)n1nc(-c2ccc3oc(N)nc3c2)c2c(N)ncnc21 + COc1cc2nc(C)nc(NC(C)c3cc(N)cc(C(F)(F)F)c3)c2cc1OC1CCOC1
-- reply 86.5

-- ask Give the reported value of viability, T/C for this record: Cn1ncnc1[C@H]1c2n[nH]c(=O)c3cc(F)cc(c23)N[C@@H]1c1ccc(F)cc1 + CNCc1ccccc1-c1csc(C(C)Nc2nc(C)nc3cc(OC)c(OC)cc23)c1
-- reply 75.1

-- ask Give the reported value of viability, T/C for this record: Cn1ncnc1[C@H]1c2n[nH]c(=O)c3cc(F)cc(c23)N[C@@H]1c1ccc(F)cc1 + C=CC(=O)N1CCN(c2nc(=O)n(-c3c(C)ccnc3C(C)C)c3nc(-c4c(O)cccc4F)c(F)cc23)C(C)C1
-- reply 138

-- ask Give the reported value of viability, T/C for this record: CCN1CCN(Cc2ccc(Nc3ncc(F)c(-c4cc(F)c5nc(C)n(C(C)C)c5c4)n3)nc2)CC1 + C=CC(=O)N1CCN(c2nc(=O)n(-c3c(C)ccnc3C(C)C)c3nc(-c4c(O)cccc4F)c(F)cc23)C(C)C1
-- reply 95

-- ask Give the reported value of viability, T/C for this record: CN(C)C/C=C/C(=O)Nc1cc2c(Nc3ccc(F)c(Cl)c3)ncnc2cc1O[C@H]1CCOC1 + CNCc1ccccc1-c1csc(C(C)Nc2nc(C)nc3cc(OC)c(OC)cc23)c1
-- reply 77.3
